# ASSAY SYSTEM: AgSla1-D3
# PROTOCOL SUMMARY: SPOT peptide array binding signal intensity (averaged, normalized) (arbitrary units (background-subtracted, floor 0; scale differs between SH3 domains)); higher = stronger binding of the SH3 domain to the peptide
Label met when SPOT peptide array binding signal intensity is at or above 7; otherwise label not met.

| BINDER | QUALITATIVE LABEL |
| --- | --- |
| GQYRRTIVIPRRFFT | met |

Evaluate "KWVRRPKLMTPLTFS" : SPOT peptide array binding signal intensity at minimum 7?
met

Given "NLKKRPPTAPQRKIS" , state whether its SPOT peptide array binding signal intensity is at least 7.
met

Could you tell me if the measured SPOT peptide array binding signal intensity of "ERPKRRAPPPVPKKP" reaches 7 or more?
met

Is the recorded value of SPOT peptide array binding signal intensity equal to or greater than 7 for this binder? "DLFKPLPEPPTELGR"
not met

Is the recorded value of SPOT peptide array binding signal intensity equal to or greater than 7 for this binder? "MFLISPPASPPPEFD"
not met
